test-system: PEX5-PEX14 complex (biotin-coupled PEX5 peptide, His-tagged T. brucei PEX14) (Trypanosoma brucei brucei)
Sequence (Q38CL4 1-366, one chain of several): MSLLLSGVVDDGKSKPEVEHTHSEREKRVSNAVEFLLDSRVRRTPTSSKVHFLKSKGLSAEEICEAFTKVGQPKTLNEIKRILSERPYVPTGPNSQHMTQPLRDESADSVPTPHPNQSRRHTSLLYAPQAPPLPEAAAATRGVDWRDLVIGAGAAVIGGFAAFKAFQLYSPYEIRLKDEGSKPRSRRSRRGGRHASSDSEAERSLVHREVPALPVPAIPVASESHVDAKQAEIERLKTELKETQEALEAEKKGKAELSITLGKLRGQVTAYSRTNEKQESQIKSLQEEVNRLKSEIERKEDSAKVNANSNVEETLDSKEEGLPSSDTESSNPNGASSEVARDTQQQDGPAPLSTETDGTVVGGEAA
measurement-notes: biochemical
Assay type: binding
measurement-conditions: 30 nM PEX5, 30 nM PEX14; quadruplicate; read-out: AlphaScreen EC50 [μM] (±SD)
Catalogue of EC50 readings, one per entry.
Field format: number, assumed µM, no unit text.

Q: Indicate its recorded EC50; the molecule in question is Cc1ccccc1-c1ccc(CN2CCc3c(c(C(=O)NCc4ccccc4)nn3CCO)C2)cc1
Result: 45.9

Q: Please report the measured EC50 for Cn1nc(C(=O)NCc2ccccc2)c2c1CCN(Cc1ccccc1)C2
Result: 4530

Value source: patent US10138242B2
